test: Specific activity of purified CHI, absorbance decrease at 384 nm, eriodictyol chalcone; type: biochemical; settings: purified CHI in 50 mM PBS, 100 μM substrate, 25° C. Note: unit not given here.
Measured Parameter: Specific activity, Eriodictyol chalcone

Observe how each entry below is paired with its result.
- Molecule: "CHIera Mut2: Chalcone isomerase variant 2 from Eubacterium ramulus, genetically engineered (protein, listed as Eubacterium ramulus) MADFKFEPMRSLIYVDCVSEDYRPKLQRWIYKVHIPDSISQFEPYVTKYAFYPSFPIPPQGDRFGYARMQLTEHHWLVSPLDPRLEIKAIAETFPMDVLVWQGQIPAAAHTDAQIDSDGDAGRAAGKSNNAEGNPFIFAFLPMWWEKDLKGKGRTIEDGANYRFNMTIGFPEGVDKAEGEKWLFEKVVPILQAAPECTRVLASAVKKDINGCVMDWVLEIWFENQSGWYKVMVDDMKALEKPSWAQQDAFPFLKPYHNVCSAAVADYTPSNNLANYRGYITMR"
  Specific activity, Eriodictyol chalcone: 8.3
- Molecule: "CHIera Mut6: Chalcone isomerase variant 6 from Eubacterium ramulus, genetically engineered (protein, listed as Eubacterium ramulus) MADFKFEPMRSLIYVDCVSEDYRPKLQRWIYKVHIPDSISNFEPYVTKYAFYPSFPIPPQGDRFGYARMQLTEHHWLVSELDPRLEIRAIAETFPMDVLVWQGQIPAAAHTDAQIDSDGDAGDAARKSNNAEGNPFIFAFLPMWWEKDLKGKGRTIEDGANYRFNMTIGFPEGVDKAEGEKWLFEKVVPILQAAPECTRVLASAVKKDINGCVMDWVLEIWFENQSGWYKVMVDDMKALEKPSWAQQDAFPFLKPYHNVCSAAVADYTPSNNLANYRGYITMR"
  Specific activity, Eriodictyol chalcone: 52.4
- Molecule: "CHIera Mut13: Chalcone isomerase variant 13 from Eubacterium ramulus, genetically engineered (protein, listed as Eubacterium ramulus) MADFKFEPMRSLIYVDCVSEDYRPKLQRWIYKVHIPDSISKFEPYVTKYAFYPSFPIPPQGDRFGYARMQLTEHHWLVSPLDPRLEINAIAETFPMDVLVWQGQIPAAAHTDAQIDSDGDADDAARKSNNAEGNPFIFAFLPMWWEKDLKGKGRTIEDGANYRFNMTIGFPEGVDKAEGEKWLFEKVVPILQAAPECTRVLASAVKKDINGCVMDWVLEIWFENQSGWYKVMVDDMKALEKPSWAQQDAFPFLKPYHNVCSAAVADYTPSNNLANYRGYITMR"
  Specific activity, Eriodictyol chalcone: 28.0

Alright, here's another molecule for you.
### Prompt Which Specific activity, Eriodictyol chalcone reading was recorded for the molecule CHI2: Chalcone isomerase from Tepidanaerobacter acetatoxydans, access no. WP_013779275.1 (protein, Tepidanaerobacter acetatoxydans) DTEFKPMRSLIYVGVAKEEYRHKLKNWLYRYHIPDSISQFAPYVTKYAFYNALPVPPEGERFGAYNMQLTEHYWLINPMNPQLKIKAFTEFFPVDVLKWQGNIPDDADADSVNIEGDAARSSGGDNGMPPFIFAFIPFWWEEDFKGAGRTVEDGPNYRWQFLIQYPNGISLEEGDQWFYKKLVPAFKEMPEVNRFLTSRVIRDVNDCQFHRVIEMWFDGPEEWYRAAVEKGKSIERPHWATAEEFPYLKPKFQIASLFLTDIADSDNYSQYRGYITMR ?
### Response 25.4
